# System: NCI-H460
# protocolDescription: NCI tumour cell line growth inhibition, 48 h
The source made the active and inactive calls. Cut-off read from the data, not from the text of the source: active = GI50 up to about 1.1 µM and inactive = higher.
// reported GI50 per item
endpointName: GI50

# compound, measuredOn, value
data = [
    ("CC(=O)/C=C1/c2ccccc2N(C(C)=O)C1O (stereo not drawn)", "NCI-H460", "> 100 µM (inactive)"),
    ("O=C(O)CCC(NC(=O)c1ccc(Nc2cnc3ccc(C(F)(F)F)cc3n2)cc1)C(=O)O (stereo not drawn)", "NCI-H460", "> 100 µM (inactive)"),
    ("CCN(CCCN(CC)C(=O)Nc1c(C)cccc1C)C(=O)Nc1c(C)cccc1C", "NCI-H460", "> 100 µM (inactive)"),
]
